These measurements were taken from patent US4997818A.

Give measured IC50 for each item. Keep answers brief.
Target: terminal deoxynucleotidyl transferase (TdT) (Bos taurus)
Sequence (P06526 whole entry): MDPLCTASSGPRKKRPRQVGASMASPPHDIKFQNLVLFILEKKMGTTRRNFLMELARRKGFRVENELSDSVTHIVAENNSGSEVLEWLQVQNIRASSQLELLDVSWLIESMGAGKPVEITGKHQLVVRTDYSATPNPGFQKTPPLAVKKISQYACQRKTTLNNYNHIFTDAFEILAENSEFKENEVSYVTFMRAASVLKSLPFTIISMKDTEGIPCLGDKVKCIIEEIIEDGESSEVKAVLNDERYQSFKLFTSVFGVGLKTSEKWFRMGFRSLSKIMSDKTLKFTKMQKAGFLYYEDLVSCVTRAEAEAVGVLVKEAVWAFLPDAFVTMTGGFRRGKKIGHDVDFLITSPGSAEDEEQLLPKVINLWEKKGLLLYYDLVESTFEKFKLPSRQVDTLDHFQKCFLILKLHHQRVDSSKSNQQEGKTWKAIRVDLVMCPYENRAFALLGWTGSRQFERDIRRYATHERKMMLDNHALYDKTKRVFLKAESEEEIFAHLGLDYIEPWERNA
Give bare numbers, in µM.

compound="Nc1ncnc2c1ncn2[C@H]1CC[C@@H](COP(=O)(O)OP(=O)(O)OP(=O)(O)O)O1 [ddATP, 2',3'-dideoxyadenosine triphosphate]" studytarget="terminal deoxynucleotidyl transferase (TdT) (Bos taurus)" obsvalue=9

Provide reported IC50 for each item, in the same order as listed.
1. Cc1cn([C@H]2C[C@H](N=[N+]=[N-])[C@@H](CO[P@](=O)(O)O[P@](=O)(O)OP(=O)(O)O)O2)c(=O)[nH]c1=O [AZTTP, 3'-azido thymidine triphosphate, reference compound]
2. Nc1ccn([C@H]2CC[C@@H](COP(=O)(O)OP(=O)(O)OP(=O)(O)O)O2)c(=O)n1 [ddCTP, dideoxycytosine triphosphate]

A)
1. 133
2. 24.8
